Listing of recorded In vitro activity compared with native peptide (%) vs Glucagon (cAMP EC50) by entry.
system: human GCG receptor (human, UniProt P47871 26-477)
Sequence (P47871 26-477): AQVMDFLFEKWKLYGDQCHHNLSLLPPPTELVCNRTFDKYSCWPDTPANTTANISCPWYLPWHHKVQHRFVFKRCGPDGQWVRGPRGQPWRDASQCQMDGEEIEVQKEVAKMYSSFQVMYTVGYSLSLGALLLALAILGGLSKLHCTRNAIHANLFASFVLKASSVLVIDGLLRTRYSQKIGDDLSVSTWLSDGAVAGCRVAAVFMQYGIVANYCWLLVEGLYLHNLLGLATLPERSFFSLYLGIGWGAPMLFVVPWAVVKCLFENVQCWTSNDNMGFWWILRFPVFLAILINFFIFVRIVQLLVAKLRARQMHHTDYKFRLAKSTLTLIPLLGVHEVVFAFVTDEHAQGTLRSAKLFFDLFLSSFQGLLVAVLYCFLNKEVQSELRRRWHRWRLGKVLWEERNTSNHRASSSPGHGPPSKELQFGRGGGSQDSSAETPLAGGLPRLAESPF
assayName: cell-based or functional assay
Bridge positions count the residues as written; N and C are the ends. Square brackets hold non-standard residues; d marks the D form. Ends that are not written are not given here. * marks the point of attachment. Acetyl(2-(4-imidazolyl)) = O=C(Cc1c[nH]cn1)*; Aib = CC(C)(N)C(=O)O

Some solved cases for reference:
| binder | recordedMeasurement |
| --- | --- |
| H[Aib]QGTFTSDVSKYLDGQAAQEFVAWLLAGGGPSSGAPPPSC [triple agonist of SEQ ID NO: 10] | < 0.1% |
| HGQGTFTSDCSKYLDGQRAQDFVNWLLAGGPSSGAPPPS [triple agonist of SEQ ID NO: 48] | < 0.1% |
| H[Aib]QGTFTSDVSSYLLGQAAKQFIAWLVKGGGPSSGAPPPSC [triple agonist of SEQ ID NO: 3] | < 0.1% |
| {Acetyl(2-(4-imidazolyl))}-[Aib]QGTFTSDYSIAMDEIACKDFVNWLLNTK (bridge 15-19) [triple agonist of SEQ ID NO: 61] | < 0.1% |
| HGQGTFTSDCSKYLDEQHAQEFVAWLLAGGPSSGAPPPS [triple agonist of SEQ ID NO: 46] | < 0.1% |
| H[Aib]QGTFTSDVSSYLDGQAAKEFIAWLVKGC [triple agonist of SEQ ID NO: 1] | < 0.1% |
| H[Aib]QGTFTSDVSKYLDGQAAKEFVAWLLKGC [triple agonist of SEQ ID NO: 7] | < 0.1% |

query: I have this binder here, H[Aib]QGTFTSDYSIAMDEIHQKDFVNWLLAQKC (bridge 16-20) [triple agonist of SEQ ID NO: 33] , and I need its recorded In vitro activity compared with native peptide (%) vs Glucagon (cAMP EC50).
result: < 0.1%
